The measured values listed here are drawn from patent US12448399B2.

# study system: KRas-G12D (Homo sapiens, UniProt P01116, G12D)
# Construct: insert the HiBiT tag onto the N-terminus of one or more of the endogenous KRas alleles; host or cells: AsPC-1 HiBiT-KRasG12D knock-in clone (one tagged allele, two untagged KRasG12D alleles)
# Sequence (P01116 1-188 isoform P01116-2 G12D): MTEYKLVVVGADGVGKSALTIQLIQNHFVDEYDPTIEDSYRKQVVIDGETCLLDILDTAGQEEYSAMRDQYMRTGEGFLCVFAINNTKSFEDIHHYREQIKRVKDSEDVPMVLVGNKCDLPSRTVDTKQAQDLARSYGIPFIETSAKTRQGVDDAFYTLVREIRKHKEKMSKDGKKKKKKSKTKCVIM
# experiment: HiBiT Degradation Assay (G12D), AsPC-1 HiBiT-KRasG12D cells, 24 hr
# Assay type: cell-based
# measurement context: AsPC-1 cells
Documented DC50 across a set of compounds

The cases that follow already have their DC50 on record.
CCc1cccc2cc(O)cc(-c3ncc4c(N5CC6CCC(C5)N6)nc(OC[C@@]56CCCN5[C@H](COC(=O)N5CCN(c7ccc8c(c7)CN(C7CCC(=O)N(C)C7=O)C8=O)CC5)CC6)nc4c3F)c12 (some centres unmarked); < 5.1 µM
O=C1CCC(N2Cc3c(ccc(N4CCC(CN5CCC(CC6CCN(CCOc7nc(N8CC9CCC(C8)N9)c8cnc(-c9cc(O)cc(Cl)c9C9CC9)c(F)c8n7)CC6)CC5)CC4)c3F)C2=O)C(=O)N1 (centres unmarked); < 5.1 µM

[in] # get_value(readout= DC50, system= KRas-G12D (Homo sapiens, UniProt P01116, G12D)) for C#Cc1c(F)ccc2cc(O)cc(-c3ncc4c(N5CC6CCC(C5)N6)nc(OCCN5CCC(CN6CCC7(CC6)CCN(c6ccc8c(c6F)CN(C6CCC(=O)NC6=O)C8=O)CC7)CC5)nc4c3F)c12 (centres unmarked)
[out] < 5.1 µM

[in] Give recorded DC50 with KRas-G12D (Homo sapiens, UniProt P01116, G12D) for the following compound: C#Cc1c(F)ccc2cc(O)cc(-c3ncc4c(N5CC6CCC(C5)N6)nc(OC[C@@H]5CC[C@@H](COC(=O)N6CCN(c7cccc8c7CN(C7CCC(=O)NC7=O)C8=O)CC6)N5C)nc4c3F)c12 (some centres unmarked)
[out] 0.25 to 1 µM

[in] Short answer please: DC50, KRas-G12D (Homo sapiens, UniProt P01116, G12D), entry C#Cc1c(F)ccc2cc(O)cc(-c3ncc4c(N5CC6CCC(C5)N6)nc(OCC5(CN6CCC(CC7CCN(c8ccc9c(c8)n(C)c(=O)n9C8CCC(=O)NC8=O)CC7)CC6)CC5)nc4c3F)c12 (centres unmarked)
[out] < 5.1 µM

====

Documented DC50 across a set of molecules
# study system: KRas-G12D (Homo sapiens, UniProt P01116, G12D)
# Construct: insert the HiBiT tag onto the N-terminus of one or more of the endogenous KRas alleles; host or cells: AsPC-1 HiBiT-KRasG12D knock-in clone (one tagged allele, two untagged KRasG12D alleles)
# experiment: HiBiT Degradation Assay (G12D), AsPC-1 HiBiT-KRasG12D cells, 24 hr
# Format: cell-based
# measurement context: AsPC-1 cells

Known DC50 results, listed for orientation:
C#Cc1c(F)ccc2cc(O)cc(-c3ncc4c(N5CC6CCC(C5)N6)nc(OCCN5CCC(CC6CCN(CC7CCN(c8cccc9c8n(C(C)C)c(=O)n9C8CCC(=O)NC8=O)CC7)CC6)CC5)nc4c3F)c12 (centres unmarked); < 5.1 µM
C#Cc1c(F)ccc2cc(O)cc(-c3ncc4c(N5CC6CCC(C5)N6)nc(OCCN5CCC(C)(CN6CCN(CC7CCN(c8ccc9c(c8)n(C)c(=O)n9C8CCC(=O)NC8=O)CC7)CC6)CC5)nc4c3F)c12 (centres unmarked); < 5.1 µM
CCc1cccc2cc(O)cc(-c3ncc4c(N5CC6CCC(C5)N6C)nc(OC[C@]56CCCN5[C@@H](COC(=O)N5CCN(c7cccc8c7CN(C7CCC(=O)NC7=O)C8=O)CC5)CC6)nc4c3F)c12 (some centres unmarked); > 1 µM
C#Cc1c(F)ccc2cc(O)cc(-c3ncc4c(N5CC6CCC(C5)N6)nc(OC[C@H](C)N5CCC(CC6CCN(CC7CCN(c8ccc9c(c8F)CN(C8CCC(=O)NC8=O)C9=O)CC7)CC6)CC5)nc4c3F)c12 (some centres unmarked); < 5.1 µM

Now examine the next entry.
[in] Look up DC50 for this molecule: C#Cc1c(F)ccc2cc(O)cc(-c3ncc4c(N5CC6CCC(C5)N6)nc(OCCN5CCC(CN6CCC(CC7CCN(c8ccc9c(c8F)CN(C8CCC(=O)NC8=O)C9=O)CC7)CC6)CC5)nc4c3F)c12 (centres unmarked)
[out] < 5.1 µM
